The values you see were collected from PubChem BioAssay (NCI).

growth inhibition listing for selected compounds.
# experiment: NCI Yeast Anticancer Drug Screen. Data for the cln2 rad14 strain (AID 165);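 also: 0% = growth equal to vehicle treated cultures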
# conditionContext: S. cerevisiae cln2 rad14 strain, at 50.0 µM, active compounds read high
Compounds without any hit were thinned out: in the full panel of roughly 79,000, 15% have a hit.
Numeric only. Scale: %

Nc1ccc(/C=C\C(=O)c2ccccc2)cc1 = 12.6
CCOC(=O)C1=C(C)N(NC(=O)OC)C2(N)N(NC(=O)OC)C(C)=C(C(=O)OCC)C12C#N (stereo not drawn) = -5.7
c1ccc2c(c1)ccc1c2ccc2c1cc1ccccn12 = -14.7
CC(=O)N1c2ccccc2C(C)(C)C1O (stereo not drawn) = -13.7

Data request: Please look up its growth inhibition: CCOC(=O)C(O)(NC(C)=O)C(F)(F)F (stereo not drawn)
Data returned: 17.4

Data request: Please look up its growth inhibition: "CCC1(CC)COC2(CCC(C)CC2)OC1"
Data returned: -16.1

Data request: Please look up its growth inhibition: "CC(=O)c1ccc2ccccc2c1O"
Data returned: -11.1

Data request: Please look up its growth inhibition: "O=C(Nc1ccc(F)c([N+](=O)[O-])c1)N(Cc1ccccc1)c1ccccc1"
Data returned: 5.95

Data request: Please look up its growth inhibition: "CCc1c(C)[nH]c2c1C(=O)CCC2"
Data returned: 18.1

Data request: Please look up its growth inhibition: "Cc1ccc2c(c1)CCC(=O)O2"
Data returned: -17.2

Data request: Please look up its growth inhibition: "Clc1ccc(Cl)c(-c2csc(-c3cccnc3)n2)c1"
Data returned: -34.5

Data request: Please look up its growth inhibition: "CCO/N=C(\C(=O)NO)c1ccccc1"
Data returned: -24.4

Data request: Please look up its growth inhibition: "Cc1cc(N(CCC#N)S(=O)(=O)c2ccccc2)ccc1C=O"
Data returned: -9.05

* * *

# experiment: NCI Yeast Anticancer Drug Screen. Data for the cln2 rad14 strain (AID 165);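 also: 0% = growth equal to vehicle treated cultures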
# conditionContext: S. cerevisiae cln2 rad14 strain, at 50.0 µM, active compounds read high
# Procedure: Growth inhibition of yeast strains with defined genetic alterations is measured as a screen for potential anti-cancer activity. Selected strains with alterations in DNA damage repair or cell cycle control were exposed to compounds and growth inhibition was measured relative to vehicle treated controls. The strain used in this assay is cln2 rad14
The panel holds about 79,000 compounds, 15% with a hit somewhere; the sample as a whole holds those more often.
reportedEndpoint: growth inhibition (%)
Numeric only. Scale: %

OCCOc1c(Cl)c(C(Cl)(Cl)Cl)nc2ccccc12 = 46
CCOC(=O)NNC(=O)c1ccccc1N(C)C = -13.7
Cc1ccc(S(=O)(=O)Nc2ccc(C(=O)NC(CCC(=O)O)C(=O)O)cc2)cc1 (centres undefined) = -2.45
CCOC(=O)C1=C(C)NC(=O)NC1c1cccc(OC)c1O (centres undefined) = 9.7
CCCCCC/C(CC(=O)CCC(=O)NCCc1ccccc1)=N\Nc1ccc([N+](=O)[O-])cc1[N+](=O)[O-] = 34.2

Data request: Please look up its growth inhibition: "Cc1ccccc1/C1=C/CCCCCC1"
Data returned: -21.6

Data request: Please look up its growth inhibition: "C=C(C)S(=O)(=O)c1ccc(C)cc1"
Data returned: -15.3

Data request: Please look up its growth inhibition: CC1C(c2ccccc2)(N(C)C)CS1(=O)=O (centres undefined)
Data returned: -74.7

Data request: Please look up its growth inhibition: "O=S1(=O)NNC(=NCc2ccc(Cl)c(Cl)c2)c2ccccc21"
Data returned: -1.4

Data request: Please look up its growth inhibition: "CCCCCCCCCCCCCCO"
Data returned: -54.8

Data request: Please look up its growth inhibition: "COc1ccc2nc(-c3ccccc3)cc(N=[N+]=[N-])c2c1"
Data returned: -5.35

Data request: Please look up its growth inhibition: O=C(N/N=C1\C(=O)N(c2nccs2)C(=O)C(=O)C1c1nc2ccccc2s1)c1ccccc1O (centres undefined)
Data returned: 30.1

Data request: Please look up its growth inhibition: O=C(NNCCO)C(O)C(O)C(O)C(O)CO (centres undefined)
Data returned: 5.25

Data request: Please look up its growth inhibition: "CN1CCC(=O)C(c2ccccc2)(c2ccccc2)CC1"
Data returned: -24.9
